test: Binding in brain homogenate from rat, equilibrium dialysis; type: in vitro ADME; conditions: rat, brain homogenate, rat brain homogenates, read-out: rat fu,brain
measured.attribute: fraction unbound at 6 h, 1 µM
Please give the numeric answer without any surrounding text.

Solved cases below.
Lab note: Cc1nc2sc3c(NC4CC(F)(F)C4)nncc3c2c(C)c1Cl.Cl [Compound 22k] gave fraction unbound at 6 h, 1 µM of 0.008

Recorded fraction unbound at 6 h, 1 µM (compound Cc1nc2sc3c(NC4CC4)nncc3c2c(C)c1Cl.Cl [Compound 22i] ): 0.011

Value of fraction unbound at 6 h, 1 µM reported for the compound Cc1c(Cl)cnc2sc3c(N4CC(C#N)C4)ncnc3c12 [Compound 15f] is 0.002

Looking up Cc1c(Cl)cnc2sc3c(NC4CC4)ncnc3c12 [Compound 15g] , I see its fraction unbound at 6 h, 1 µM listed as 0.003

Data point: Cc1nc2sc3c(NC4CCC4)nncc3c2c(C)c1Cl.Cl [Compound 22j] ; fraction unbound at 6 h, 1 µM = 0.006

# fraction unbound at 6 h, 1 µM (compound: Cc1nc2oc3c(NC4CC4(C)C)ncnc3c2c(C)c1Cl.Cl (stereo not drawn) [Compound 14p] ) is 0.002

Memo: Cc1c(Cl)cnc2sc3c(N4CC5(COC5)C4)ncnc3c12 [Compound 15h] , reported fraction unbound at 6 h, 1 µM: 0.003

***
What the record says about Cc1nc2oc3c(NC4CC4)ncnc3c2c(C)c1Cl.Cl [Compound 14o] : fraction unbound at 6 h, 1 µM is 0.017

* * *

Target: human M2 (hM2) (Homo sapiens, UniProt P08172)
Construct: expressed in transfected cells
Sequence (P08172 1-466): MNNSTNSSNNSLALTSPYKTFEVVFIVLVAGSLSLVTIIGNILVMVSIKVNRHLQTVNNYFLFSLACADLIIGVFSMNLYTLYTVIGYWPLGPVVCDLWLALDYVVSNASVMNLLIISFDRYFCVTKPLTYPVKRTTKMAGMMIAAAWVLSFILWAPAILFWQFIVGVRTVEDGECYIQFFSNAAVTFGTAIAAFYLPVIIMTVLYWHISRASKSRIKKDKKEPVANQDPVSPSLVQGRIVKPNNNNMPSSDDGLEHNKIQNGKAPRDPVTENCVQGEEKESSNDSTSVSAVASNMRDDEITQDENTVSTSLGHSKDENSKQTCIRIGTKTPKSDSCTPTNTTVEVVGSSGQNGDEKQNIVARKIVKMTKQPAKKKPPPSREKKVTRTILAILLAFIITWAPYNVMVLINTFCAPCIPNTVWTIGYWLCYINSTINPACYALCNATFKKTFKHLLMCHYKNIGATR
Assay: Calcium mobilization assay, hM2/Gqi5-CHO cells, with EC20 acetylcholine
Type: cell-based
measured.attribute: hM2 % ACh Max (%)
// units = %; emit number, no label

Form field hM2 % ACh Max, entry Cc1nc2sc3c(NC4CC(F)(F)C4)nncc3c2c(C)c1Cl.Cl [Compound 22k] : 49

Noted for Cc1c(Cl)cnc2sc3c(NC4CC4)ncnc3c12 [Compound 15g] : its hM2 % ACh Max reads 40

# compound Cc1nc2sc3c(NC4CCC4)nncc3c2c(C)c1Cl.Cl [Compound 22j] ; its hM2 % ACh Max = 44

Item: Cc1nc2oc3c(NC4CC4(C)C)ncnc3c2c(C)c1Cl.Cl (centres unmarked) [Compound 14p] | hM2 % ACh Max: 39

---
Lab book: hM2 % ACh Max of Cc1nc2sc3c(NC4CC4)ncnc3c2c(C)c1Cl.Cl [Compound 13l] noted as 49
